These entries and their values trace back to the Deep4Chem optical property database.

assay: solvent given as SMILES; details: in CC(C)=O
experimental readout: fluorescence lifetime (ns)
Could you give me the number in ns? Just the number is fine.

A selection of reference data follows.
Fill in fluorescence lifetime for record `COc1ccc(N(c2ccc(OC)cc2)c2cc3ccc4cc(B(c5c(C)cc(C)cc5C)c5c(C)cc(C)cc5C)cc5ccc(c2)c3c45)cc1`
3.2

Fill in fluorescence lifetime for record `CN(C)c1ccc2nc3c(cc2c1)c(-c1ccccc1)nn3-c1ccccc1`
23.4

Fill in fluorescence lifetime for record `CCC1(CC)c2cc(B(c3c(C)cc(C)cc3C)c3c(C)cc(C)cc3C)ccc2-c2ccc(N(c3ccccc3)c3ccccc3)cc21`
2.9

More entries:
Fill in fluorescence lifetime for record `CSC1=C2C=C(c3cc4n(c3)[B-](F)(F)[N+]3=CC=CC3=C4c3c(C)cc(C)cc3C)C(C)=[N+]2[B-](F)(F)n2c(C)ccc21`
0.39

Fill in fluorescence lifetime for record `COc1ccc(-c2nc3ccccc3nc2/C=C/N2CCCC2)s1`
5.1

Fill in fluorescence lifetime for record `COc1ccc(C(=O)NN2C3=C(CC4=C2CCCC4=O)C(=O)CCC3)cc1`
5.4

Fill in fluorescence lifetime for record `CC1(C)C(/C=C/C2=C(c3ccc(C(=O)O)cc3)C(=C/C=C3/N(CCCCS(=O)(=O)[O-])c4ccccc4C3(C)C)/CC2)=[N+](CCCCS(=O)(=O)[O-])c2ccccc21`
1.13

Fill in fluorescence lifetime for record COC(=O)C(Cc1ccc2oc(-c3ccc(-n4c5ccccc5c5ccccc54)cc3)nc2c1)NC(=O)OC(C)(C)C (configuration not stated)
4.28
